Values were extracted from paper PMC10397247.

Target: T1, 4H4073-bH
T1 chain: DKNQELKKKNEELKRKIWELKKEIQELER
Assay: two-hybrid library CCNG1;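 also: natural log of median RNA to DNA barcode read ratio; higher means stronger binding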
Endpoint Name: interaction score

I = DKNQELKKKIEELKRENWELEKKIQELKR [4H3926-bH]
II = DENQELEKENEELEREIWELEKKIQELKR [4H1158-bH]
Exercise: Compare I and II and name the one whose reported interaction score is smaller. Answer = label.
Key: I
(I: -0.649, II: 1.57)
